test system: Bacillus subtilis; assay: Antibacterial activity against Bacillus subtilis MTCC 121 at 100 ug/ml after 24 hrs; type: functional, organism-based
Activity calls are given as the source filed them. No cut-off for these calls is given here.
Labels: TRUE = active, FALSE = inactive

{"Compound": "Cc1cccc(C2C(Cl)C(=O)N2c2nnc(Cn3c(C)nc4ccccc43)s2)c1 (stereo unspecified)", "Target System": "Bacillus subtilis", "Category": "FALSE"}
{"Compound": "Cc1nc2ccccc2n1Cc1nnc(/N=C/c2ccccc2Cl)s1", "Target System": "Bacillus subtilis", "Category": "TRUE"}
{"Compound": "COc1ccccc1/C=N/c1nnc(Cn2c(C)nc3ccccc32)s1", "Target System": "Bacillus subtilis", "Category": "FALSE"}
{"Compound": "Cc1nc2ccccc2n1Cc1nnc(N2C(=O)C(Cl)C2c2ccccc2O)s1 (stereo unspecified)", "Target System": "Bacillus subtilis", "Category": "TRUE"}
{"Compound": "COc1ccc(/C=N/c2nnc(Cn3c(C)nc4ccccc43)s2)cc1", "Target System": "Bacillus subtilis", "Category": "TRUE"}
{"Compound": "Cc1ccccc1C1C(Cl)C(=O)N1c1nnc(Cn2c(C)nc3ccccc32)s1 (stereo unspecified)", "Target System": "Bacillus subtilis", "Category": "TRUE"}
{"Compound": "Cc1nc2ccccc2n1Cc1nnc(N2C(=O)C(Cl)C2c2ccc(N)cc2)s1 (stereo unspecified)", "Target System": "Bacillus subtilis", "Category": "TRUE"}
{"Compound": "Cc1nc2ccccc2n1Cc1nnc(/N=C/c2ccc(N)cc2)s1", "Target System": "Bacillus subtilis", "Category": "TRUE"}
{"Compound": "COc1ccccc1C1C(Cl)C(=O)N1c1nnc(Cn2c(C)nc3ccccc32)s1 (stereo unspecified)", "Target System": "Bacillus subtilis", "Category": "FALSE"}
{"Compound": "Cc1nc2ccccc2n1Cc1nnc(/N=C/c2ccccc2)s1", "Target System": "Bacillus subtilis", "Category": "TRUE"}
{"Compound": "Cc1cccc(/C=N/c2nnc(Cn3c(C)nc4ccccc43)s2)c1", "Target System": "Bacillus subtilis", "Category": "FALSE"}
{"Compound": "Cc1nc2ccccc2n1Cc1nnc(N2C(=O)C(Cl)C2c2ccc(Cl)cc2)s1 (stereo unspecified)", "Target System": "Bacillus subtilis", "Category": "FALSE"}
{"Compound": "Cc1nc2ccccc2n1Cc1nnc(/N=C/c2cccc(O)c2)s1", "Target System": "Bacillus subtilis", "Category": "FALSE"}
{"Compound": "Cc1nc2ccccc2n1Cc1nnc(/N=C/c2ccc(Cl)cc2)s1", "Target System": "Bacillus subtilis", "Category": "FALSE"}
{"Compound": "Cc1nc2ccccc2n1Cc1nnc(/N=C/c2ccccc2O)s1", "Target System": "Bacillus subtilis", "Category": "TRUE"}
{"Compound": "CC1(C)S[C@@H]2[C@H](NC(=O)[C@H](N)c3ccccc3)C(=O)N2[C@H]1C(=O)O [AMPICILLIN]", "Target System": "Bacillus subtilis", "Category": "TRUE"}

---

system: Bacillus subtilis; experiment: Antibacterial activity against Bacillus subtilis MTCC 121 at 200 ug/ml after 24 hrs; type: functional, organism-based
Calls of active or inactive are those of the source. The calls are words filed in the database; no cut-off is given here.
Readout Type: inhibition

{"Molecule": "Cc1nc2ccccc2n1Cc1nnc(N2C(=O)C(Cl)C2c2ccc(O)cc2)s1 (configuration not stated)", "Experimental Result": "Active"}
{"Molecule": "Cc1ccccc1/C=N/c1nnc(Cn2c(C)nc3ccccc32)s1", "Experimental Result": "Active"}
{"Molecule": "COc1ccccc1/C=N/c1nnc(Cn2c(C)nc3ccccc32)s1", "Experimental Result": "inactive"}
{"Molecule": "Cc1nc2ccccc2n1Cc1nnc(/N=C/c2ccccc2Cl)s1", "Experimental Result": "Active"}
{"Molecule": "Cc1nc2ccccc2n1Cc1nnc(/N=C/c2ccc(O)cc2)s1", "Experimental Result": "Active"}
{"Molecule": "Cc1nc2ccccc2n1Cc1nnc(N2C(=O)C(Cl)C2c2ccc(N)cc2)s1 (configuration not stated)", "Experimental Result": "Active"}
{"Molecule": "COc1ccc(/C=N/c2nnc(Cn3c(C)nc4ccccc43)s2)cc1", "Experimental Result": "Active"}
{"Molecule": "Cc1nc2ccccc2n1Cc1nnc(N2C(=O)C(Cl)C2c2ccccc2)s1 (configuration not stated)", "Experimental Result": "Active"}
{"Molecule": "Cc1nc2ccccc2n1Cc1nnc(/N=C/c2ccc(N)cc2)s1", "Experimental Result": "Active"}
{"Molecule": "Cc1nc2ccccc2n1Cc1nnc(/N=C/c2cccc(O)c2)s1", "Experimental Result": "inactive"}
{"Molecule": "Cc1nc2ccccc2n1Cc1nnc(N2C(=O)C(Cl)C2c2ccccc2Cl)s1 (configuration not stated)", "Experimental Result": "Active"}
{"Molecule": "Cc1nc2ccccc2n1Cc1nnc(/N=C/c2ccccc2O)s1", "Experimental Result": "Active"}
{"Molecule": "Cc1nc2ccccc2n1Cc1nnc(/N=C/c2ccc(Cl)cc2)s1", "Experimental Result": "inactive"}
{"Molecule": "COc1ccc(C2C(Cl)C(=O)N2c2nnc(Cn3c(C)nc4ccccc43)s2)cc1 (configuration not stated)", "Experimental Result": "Active"}
{"Molecule": "Cc1cccc(C2C(Cl)C(=O)N2c2nnc(Cn3c(C)nc4ccccc43)s2)c1 (configuration not stated)", "Experimental Result": "inactive"}
{"Molecule": "CC1(C)S[C@@H]2[C@H](NC(=O)[C@H](N)c3ccccc3)C(=O)N2[C@H]1C(=O)O", "Experimental Result": "Active"}
{"Molecule": "Cc1nc2ccccc2n1Cc1nnc(/N=C/c2ccccc2)s1", "Experimental Result": "Active"}
{"Molecule": "Cc1nc2ccccc2n1Cc1nnc(N2C(=O)C(Cl)C2c2ccccc2O)s1 (configuration not stated)", "Experimental Result": "Active"}
{"Molecule": "COc1ccccc1C1C(Cl)C(=O)N1c1nnc(Cn2c(C)nc3ccccc32)s1 (configuration not stated)", "Experimental Result": "inactive"}
{"Molecule": "Cc1nc2ccccc2n1Cc1nnc(N2C(=O)C(Cl)C2c2ccc(Cl)cc2)s1 (configuration not stated)", "Experimental Result": "inactive"}
{"Molecule": "Cc1ccccc1C1C(Cl)C(=O)N1c1nnc(Cn2c(C)nc3ccccc32)s1 (configuration not stated)", "Experimental Result": "Active"}
{"Molecule": "Cc1nc2ccccc2n1Cc1nnc(N2C(=O)C(Cl)C2c2cccc(O)c2)s1 (configuration not stated)", "Experimental Result": "Active"}
